# Test system: OVCAR-8
# test-protocol: NCI tumour cell line growth inhibition, 48 h
Structures can show the parent of a compound that is named as a salt. The source made the active and inactive calls. No stated cut-off is given here; in the data, active = GI50 up to about 1.1 µM and inactive = higher. Where a SMILES comes first, the peptide text is derived from it. [ ]: non-standard residue; d: D form. 2Nal = N[CH](Cc1ccc2ccccc2c1)C(=O)O
Reported GI50 values for a set of compounds
measurement-label: GI50

| compound | reading |
| --- | --- |
| COc1nc(NC2OC(COC(C)=O)C(OC(C)=O)C(OC(C)=O)C2OC(C)=O)c2c(OC(C)=O)c(C)c(=O)oc2n1 (centres undefined) | > 100 µM (inactive) |
| CC(C)(C)c1ccc(-n2c3nc(=O)n(-c4ccccc4C(F)(F)F)c(=O)c-3cc3ccccc32)cc1 | 19.6 µM (inactive) |
| COC(=O)C1=CO[C@@H](C)[C@@H]2Cn3ccc4c5ccccc5nc-4c3C[C@H]12 [ALSTONINE HYDROCHLORIDE] | > 100 µM (inactive) |
| COc1ccc(OC2OC(COC(c3ccccc3)(c3ccc(OC)cc3)c3ccc(OC)cc3)C(O)C(O)C2O)cc1 (centres undefined) | 5.24 µM (inactive) |
| COP(=O)(OC)/C(=C/c1cn(C(c2ccccc2)(c2ccccc2)c2ccccc2)cn1)NC=O | 21.7 µM (inactive) |
| O=C1ON(Cc2ccccc2)C(c2ccccc2)N1c1ccccc1 (centres undefined) | > 100 µM (inactive) |
| CC(NC(=O)C(N)Cc1ccccc1)C(=O)NC(Cc1ccc(O)cc1)C(=O)NC(Cc1c[nH]c2ccccc12)C(=O)NC(CCCCN)C(=O)NC(C(=O)NC(C)C(=O)NC(Cc1ccc2ccccc2c1)C(N)=O)C(C)C (centres undefined) (H-FAYWKVA[2Nal]-NH2; configuration not given here) | > 12.5 µM (inactive) |
| CN(C)CCNc1ccc2c(=O)n(CCN(C)C)c(=O)n3c4ccc(O)cc4c(=O)c1c23 | < 0.01 µM (active) |
| CC(C)CC12CC3CCC(CNC1=O)C32C (centres undefined) | > 100 µM (inactive) |
| COC(=O)c1ccc(/N=N/N(C)COc2ccc([N+](=O)[O-])cc2)cc1 | > 100 µM (inactive) |
| CN(C)c1ccc(/C=N/NC(=O)c2cnc3ccccc3c2)cc1 | 98.2 µM (inactive) |
| Cc1c2cnccc2nc2[nH]c3ccncc3c12 | 6.98 µM (inactive) |
| COC(=O)C1=CCC2c3[nH]c4ccccc4c3CCN2C1 (centres undefined) | > 354 µM (inactive) |
| COC(=O)C(=O)C(C(=O)C=C(C)C)C(=O)C(=O)Nc1ccc(C)cc1C (centres undefined) | > 100 µM (inactive) |
| CC(NNC(=O)c1cc[n+]([BH2-]C#N)cc1)c1cccc(C(F)(F)F)c1 (centres undefined) | > 100 µM (inactive) |
| CC[C@]12CCCN3CCc4c(n(c5ccccc45)C(=O)C1)[C@@H]32 | 15.5 µM (inactive) |
| Cc1cc(OC(=O)Nc2ccc(Cl)cc2)ccc1C(=S)Nc1ccccc1 | > 100 µM (inactive) |
| NS(=O)(=O)c1ccc(NC(=O)CC(=O)Nc2ccc(S(N)(=O)=O)cc2)cc1 | > 100 µM (inactive) |
| CC(C)CCCC(C)[C@H]1CCC2[C@@H]3CCC4Cc5nc6c(nc5C[C@]4(C)C3CC[C@@]21C)CC1CC[C@@H]2C(CC[C@@]3(C)C2CC[C@@H]3O)[C@@]1(C)C6 (some centres undefined) | > 100 µM (inactive) |

Data origin, for the record: ChEMBL document CHEMBL1201862
